- procedureDetails: NCI Yeast Anticancer Drug Screen. Data for the rad50 strain (AID 155);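 also: 0% = growth of vehicle-only cultures of the same strain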
- testParameters: S. cerevisiae rad50 strain growth inhibition; at 5.0 µM (retest, dose inferred, filed as 0.5); active compounds read high
Compounds without any hit were thinned out: in the full panel of roughly 79,000, 15% have a hit.
Listing: growth inhibition of selected molecules
Report the value in % with no unit label.

Example entries and their recorded answers appear below.
molecule | units | growth inhibition
CSc1nc(NN)cc(-c2ccccc2)n1 | % | 0
CC(C)(C)c1ccc(CN2CCN(C(c3ccccc3)c3ccc(Cl)cc3)CC2)cc1 (stereo not given) | % | 20
CC1(C)N=C(N)N=C(N)N1c1cccc(CCCCC(=O)CCl)c1 | % | 15
FC(F)(F)c1[nH]nc(-c2cc3ccccc3o2)c1N=NN1CCOCC1 | % | 99
O=C(O)c1ccc(/C=C2\COc3ccccc3C2=O)cc1 | % | 5

## Input For the molecule "COc1ccc(C(C#N)=C2C=CC(=NOC(=O)Nc3ccccc3)C=C2)cc1" , what growth inhibition is on record?
## Output 41

## Input Here is the next molecule: "Cc1nc2sc3c(c2c2nnnn12)CCCC3"
## Output 2

## Input Query "Cc1ccc2nc(-[n+]3cc4ccccc4cc3C)ccc2c1" next
## Output 9

## Input Okay, and C#CC(NCCC(C)CC(C)(C)C)C(C)C (stereo not given) ?
## Output -4

## Input Query "S=c1[nH]c2ccc(Cl)cc2s1" next
## Output -22

## Input Item: "CCOC(=O)NCCCc1ccc2oc3ccccc3c2c1"
## Output -1

## Input Proceed to O=C1C=CC(=Nc2cc3c(cc2Br)-c2ccccc2C3Br)O1 (stereo not given)
## Output 23

## Input CS(=O)(=O)OC1COC2C(I)COC12 (stereo not given) ?
## Output -1

## Input Another: "CCN(CC)CCCNc1c(O)cc(C)c2sc3ccccc3c(=O)c12"
## Output 17
